Data provenance is paper PMC4305287.

# Experimental Protocol: pharmacokinetics in CD1 mice
# Format: in vivo, mouse
# Condition Info: CD1, plasma; mouse, 5 mg/kg oral
Provide the recorded AUC for the entries that follow.

# Compound, AUC
records = [
    ("c1cncc(OC[C@@H]2CNCCN2c2nc3ncccc3o2)c1 [PMP-311]", "567 ng·h/mL"),
]

Problem: Field request: AUC | item: COc1ccc(NC(=O)N2CCNC[C@@H]2COc2cccnc2)cc1 [PMP-072]
Solution: 588 ng·h/mL

* * *

# Target: α1β1 nAChR (muscle receptor) (Homo sapiens, UniProt P02708+P07510+P11230+Q07001)
# Sequence (P02708 21-457): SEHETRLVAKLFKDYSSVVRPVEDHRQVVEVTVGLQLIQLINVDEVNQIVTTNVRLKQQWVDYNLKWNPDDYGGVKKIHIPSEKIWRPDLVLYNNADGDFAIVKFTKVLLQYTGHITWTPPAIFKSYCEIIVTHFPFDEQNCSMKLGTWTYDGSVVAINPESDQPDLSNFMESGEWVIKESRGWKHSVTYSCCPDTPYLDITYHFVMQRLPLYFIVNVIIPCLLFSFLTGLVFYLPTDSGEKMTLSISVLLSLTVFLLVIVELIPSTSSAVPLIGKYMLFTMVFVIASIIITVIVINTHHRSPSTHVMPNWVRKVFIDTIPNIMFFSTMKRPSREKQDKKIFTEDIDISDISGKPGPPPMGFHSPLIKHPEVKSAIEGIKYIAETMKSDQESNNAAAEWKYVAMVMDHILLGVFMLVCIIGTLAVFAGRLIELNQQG
# Sequence (Q07001 22-517): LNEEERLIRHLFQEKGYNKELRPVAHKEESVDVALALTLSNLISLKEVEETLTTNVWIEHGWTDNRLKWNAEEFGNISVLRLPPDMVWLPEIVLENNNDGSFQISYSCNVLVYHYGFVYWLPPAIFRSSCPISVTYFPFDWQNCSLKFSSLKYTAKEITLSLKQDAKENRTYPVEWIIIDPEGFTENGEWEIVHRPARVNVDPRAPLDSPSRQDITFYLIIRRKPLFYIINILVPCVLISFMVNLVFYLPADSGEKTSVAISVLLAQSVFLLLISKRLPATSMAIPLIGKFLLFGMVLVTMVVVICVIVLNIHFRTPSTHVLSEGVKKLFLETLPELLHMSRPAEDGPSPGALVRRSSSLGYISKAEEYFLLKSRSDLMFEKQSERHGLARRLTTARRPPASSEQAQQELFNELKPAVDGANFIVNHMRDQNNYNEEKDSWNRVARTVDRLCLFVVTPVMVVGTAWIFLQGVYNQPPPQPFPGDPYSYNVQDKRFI
# Sequence (P07510 23-517): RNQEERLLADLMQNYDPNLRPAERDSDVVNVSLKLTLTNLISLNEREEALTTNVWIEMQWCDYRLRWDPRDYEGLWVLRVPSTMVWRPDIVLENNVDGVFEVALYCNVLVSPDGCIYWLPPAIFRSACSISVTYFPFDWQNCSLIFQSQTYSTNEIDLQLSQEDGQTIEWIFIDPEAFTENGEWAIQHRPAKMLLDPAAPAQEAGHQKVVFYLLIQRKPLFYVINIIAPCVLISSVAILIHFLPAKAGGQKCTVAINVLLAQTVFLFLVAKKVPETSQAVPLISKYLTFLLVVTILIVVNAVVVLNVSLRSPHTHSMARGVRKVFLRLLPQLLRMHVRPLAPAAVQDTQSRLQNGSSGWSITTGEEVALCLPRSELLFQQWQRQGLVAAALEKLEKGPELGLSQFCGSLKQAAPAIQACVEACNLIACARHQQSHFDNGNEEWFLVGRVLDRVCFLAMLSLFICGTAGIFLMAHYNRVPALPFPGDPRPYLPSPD
# Sequence (P11230 24-501): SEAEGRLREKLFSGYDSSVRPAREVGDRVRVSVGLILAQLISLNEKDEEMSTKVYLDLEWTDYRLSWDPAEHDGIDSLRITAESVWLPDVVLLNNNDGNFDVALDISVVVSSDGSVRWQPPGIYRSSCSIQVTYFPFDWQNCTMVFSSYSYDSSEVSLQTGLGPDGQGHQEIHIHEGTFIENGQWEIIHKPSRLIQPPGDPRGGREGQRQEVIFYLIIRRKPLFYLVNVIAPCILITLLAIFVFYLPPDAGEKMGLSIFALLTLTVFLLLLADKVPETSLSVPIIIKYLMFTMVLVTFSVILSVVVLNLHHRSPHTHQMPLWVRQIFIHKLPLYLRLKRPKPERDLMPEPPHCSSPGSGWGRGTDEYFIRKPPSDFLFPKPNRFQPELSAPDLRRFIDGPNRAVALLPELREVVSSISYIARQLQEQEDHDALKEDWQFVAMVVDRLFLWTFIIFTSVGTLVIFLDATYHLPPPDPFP
# Experimental Protocol: α-bungarotoxin binding to TE671 cell membranes
Property: Ki

# Molecule, Ki
rows = [
    ("COc1ccc(NC(=O)N2CCNC[C@@H]2COc2cccnc2)cc1 [PMP-072]", "> 100 µM"),
]

In the following, a different molecule is considered.
Problem: Test system α1β1 nAChR (muscle receptor) (Homo sapiens, UniProt P02708+P07510+P11230+Q07001); read-out Ki; what value for c1cncc(OC[C@@H]2CNCCN2c2nc3ncccc3o2)c1 [PMP-311] ?
Solution: > 100 µM
